Cited source for all entries: PubChem BioAssay AID179

# Tested on: CEM cells HIV-1 protection, formazan growth assay
# Assay Info: NCI AIDS Antiviral Assay
Catalogue of EC50 readings, one per entry.

Field: example entries. Status: answers known.
{"Compound": "Cc1ncc(-c2nnnn2-c2ccccc2)c(C(=O)O)n1", "EC50": "> 200 µM"}
{"Compound": "NC1=NN(c2ccccc2)C(=O)/C1=C\\n1c(=S)[nH]c2ccccc21", "EC50": "> 200 µM"}
{"Compound": "C/C(=C1/CCC/C(=C(/C)c2ccccc2)C1=O)c1ccccc1", "EC50": "> 9.12 µM"}
{"Compound": "CCOC(=O)/C(=C\\c1ccc(N(C)C)cc1)P(=O)(OCC)OCC", "EC50": "> 513 µM"}
{"Compound": "CCC(=O)[O][Bi]([c]1ccccc1)[c]1ccccc1", "EC50": "> 30.9 µM"}
{"Compound": "C/C(=C\\CCC1=CC(=O)OC1)CCC1C2C(=O)CC(C)[C@@]3(C)CC[C@]1(C)[C@@]23C (some centres undefined)", "EC50": "> 200 µM"}

Data request: What is its EC50 for CEM cells HIV-1 protection, formazan growth assay? Entry: `C=CC1(c2ccc(Br)cc2)OCCCO1`
Data returned: > 200 µM

Data request: What is its EC50 for CEM cells HIV-1 protection, formazan growth assay? Entry: `O=C1/C(=C/c2cccs2)NC(=S)N1CN1CCOCC1`
Data returned: > 200 µM

Data request: What is its EC50 for CEM cells HIV-1 protection, formazan growth assay? Entry: `COc1ccc2c(c1)CCCN2CCCCCCCCCCN(CCC(C)C)CCC(C)C`
Data returned: > 77.6 µM
